Biological target: Y160W PNP mutant (Escherichia coli, UniProt P0ABP8, Y161W)
Assay: Fluorescence titrations with phosphate
Design: made in house; host or cells: E. coli DH5α-T1; species or system E. coli
Settings: three-binding-site model, 25 °C, 50 mM Tris/HCl pH 7.6, read-out: Kd1 ± SD
PROPERTY_NAME: Kd (µM)
Form entry: value (µM) — number only.

Q) // returns reported Kd for input O=P(O)(O)O [Pi, Orthophosphate]
A) 7

---

Target: WT PNP/Pi complex (Escherichia coli, UniProt P0ABP8)
Construct: made in house
Assay: Thermophoretic (MST) titrations with formycin A
Design: species or system E. coli
Conditions: Kd3 ± SD, two-binding-site model, 50 mM phosphate, pH 7.6, 25 °C
PROPERTY_NAME: pKd
Here pKd is given on a logarithmic scale as minus log10 of the concentration in mol/L.

Q) Provide the documented pKd with WT PNP/Pi complex (Escherichia coli, UniProt P0ABP8) as the system for `Nc1ncnc2c([C@@H]3O[C@H](CO)[C@@H](O)[C@H]3O)[nH]nc12`
A) 3.73

---

Target: T1, Y160W mutant/Pi complex (Escherichia coli, UniProt P0ABP8, Y161W)
T1 construct: made in house; host or cells: E. coli DH5α-T1
Assay: Calorimetric (ITC) titrations with formycin A
Set-up: species or system E. coli
Conditions: Kd3 ± SD, three-binding-site model, 50 mM phosphate, pH 7.6, 25 °C
PROPERTY_NAME: Kd
Note: a bare number is incomplete; add the unit.

Q) Param readout= Kd; system= T1, Y160W mutant/Pi complex (Escherichia coli, UniProt P0ABP8, Y161W); entry= `Nc1ncnc2c([C@@H]3O[C@H](CO)[C@@H](O)[C@H]3O)[nH]nc12` ; returns value.
A) 655 µM

---

Target: Y160W PNP mutant (Escherichia coli, UniProt P0ABP8, Y161W)
Test: Thermophoretic (MST) titrations with phosphate
Parameters: made in house; host or cells: E. coli DH5α-T1; species or system E. coli
Conditions: two-binding-site model, 25 °C, 50 mM Tris/HCl pH 7.6, read-out: Kd1 ± SD
Experimental: Measurements were performed with Monolith NT115 (NanoTemper). Enzyme was labelled with NT647 fluorescent dye (NanoTemper) according to the protocol provided by the manufacturer. Labelled proteins show fluorescence excitation and emission maxima of approximately 650 and 670 nm, respectively. The series of titrations were performed at a constant protein concentration. […] For experiments of the binary complex formation with phosphate, curves were measured at four different powers of the heating laser. […]
PROPERTY_NAME: pKd
pKd is defined as minus the log10 of a concentration measured in mol/L.

Q) For O=P(O)(O)O [Pi, Orthophosphate] , what is its reported pKd?
A) 5.49

---

Molecular target: T1, Y160W mutant/Pi complex (Escherichia coli, UniProt P0ABP8, Y161W)
T1 construct: made in house; host or cells: E. coli DH5α-T1
Experiment: Calorimetric (ITC) titrations with formycin A
Set-up: species or system E. coli
Conditions: read-out: Kd2 ± SD, three-binding-site model, 50 mM phosphate, pH 7.6, 25 °C
PROPERTY_NAME: Kd (µM)
The reply should contain only the number, in µM.

Q) # Kd lookup, item `Nc1ncnc2c([C@@H]3O[C@H](CO)[C@@H](O)[C@H]3O)[nH]nc12`
A) 149

---

Molecular target: WT E. coli PNP (Escherichia coli)
Construct: made in house
Sequence (P0ABP8 2-239 limits assumed): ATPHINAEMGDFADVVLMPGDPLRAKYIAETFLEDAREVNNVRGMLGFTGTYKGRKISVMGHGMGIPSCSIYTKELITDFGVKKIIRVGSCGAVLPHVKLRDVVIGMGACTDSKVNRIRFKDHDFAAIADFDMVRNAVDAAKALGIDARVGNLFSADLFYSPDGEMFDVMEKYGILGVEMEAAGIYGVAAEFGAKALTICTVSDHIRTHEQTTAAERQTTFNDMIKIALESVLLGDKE
Experiment: Near-UV CD titrations
Type: binding
Details: CD titrations with phosphate, three-binding-site model, 25 °C, 50 mM Tris/HCl pH 7.6, read-out: Kd2 ± SD
PROPERTY_NAME: pKd
# log scale: pKd equals minus log10 of the concentration in mol/L

Q) GET /values?readout=pKd&item= O=P(O)(O)O [Pi, Orthophosphate]
A) 3.97

---

I'd appreciate it if you could supply Enzymatic specific activity relative to WT values for the items below.
Biological target: Y160W PNP mutant (Escherichia coli, UniProt P0ABP8, Y161W)
Assay: Enzymatic specific activity, spectrophotometric assay
Format: biochemical, E. coli
Parameters: made in house; host or cells: E. coli DH5α-T1
Conditions: Y160W vs WT; pH 7.0, 50 mM Hepes, 25 °C, 50 mM phosphate
Please make sure the unit comes right after the number.

Q) So what Enzymatic specific activity relative to WT did `Nc1ncnc2c1ncn2[C@@H]1O[C@H](CO)[C@@H](O)[C@H]1O` get with Y160W PNP mutant (Escherichia coli, UniProt P0ABP8, Y161W)?
A) 112%

Q) Please tell me: Enzymatic specific activity relative to WT of `C[n+]1cn([C@@H]2O[C@H](CO)[C@@H](O)[C@H]2O)c2nc(N)[nH]c(=O)c21` , system Y160W PNP mutant (Escherichia coli, UniProt P0ABP8, Y161W)?
A) 108%

Q) Identify the measured Enzymatic specific activity relative to WT of `Nc1nc2c(ncn2[C@@H]2O[C@H](CO)[C@@H](O)[C@H]2O)c(=O)[nH]1` for Y160W PNP mutant (Escherichia coli, UniProt P0ABP8, Y161W).
A) 60%

Q) Test system Y160W PNP mutant (Escherichia coli, UniProt P0ABP8, Y161W); read-out Enzymatic specific activity relative to WT; what value for `O=c1[nH]cnc2c1ncn2[C@@H]1O[C@H](CO)[C@@H](O)[C@H]1O` ?
A) 88%

---

Molecular target: WT E. coli PNP (Escherichia coli, UniProt P0ABP8)
Construct: made in house
Assay: Fluorescence titrations with phosphate
Conditions: three-binding-site model, 25 °C, 50 mM Tris/HCl pH 7.6, read-out: Kd3 ± SD
PROPERTY_NAME: pKd
Convention used: pKd is expressed as -log10 of the molar concentration.

Q) Fill in the blank: the reported pKd of O=P(O)(O)O [Pi, Orthophosphate] is ____.
A) 2.75

---

Target: WT PNP/Pi complex (Escherichia coli)
Construct: made in house
Assay: Thermophoretic (MST) titrations with formycin A
Parameters: species or system E. coli
Settings: Kd1 ± SD, two-binding-site model, 50 mM phosphate, pH 7.6, 25 °C
PROPERTY_NAME: Kd

Q) Using the record for `Nc1ncnc2c([C@@H]3O[C@H](CO)[C@@H](O)[C@H]3O)[nH]nc12` , report its Kd.
A) 10.7 nM

---

Biological target: WT PNP/Pi complex (Escherichia coli)
Construct: made in house
Assay: Calorimetric (ITC) titrations with formycin A
Set-up: species or system E. coli
Conditions: read-out: Kd2 ± SD, three-binding-site model, 50 mM phosphate, pH 7.6, 25 °C, values to be treated as estimates
PROPERTY_NAME: pKd
API: returns pKd as number; meaning -log10 of concentration in mol/L.

Q) Any idea what pKd was measured for Nc1ncnc2c([C@@H]3O[C@H](CO)[C@@H](O)[C@H]3O)[nH]nc12 [FA, Formycin A] ?
A) 4.26

---

Molecular target: T1, Y160W mutant/Pi complex (Escherichia coli, UniProt P0ABP8, Y161W)
T1 construct: made in house; host or cells: E. coli DH5α-T1
Test: Thermophoretic (MST) titrations with formycin A
Set-up: species or system E. coli
Settings: Kd1 ± SD, three-binding-site model, 50 mM phosphate, pH 7.6, 25 °C
PROPERTY_NAME: Kd (nM)
Record the value in nM, omitting the unit from your answer.

Q) Give the reported Kd for Nc1ncnc2c([C@@H]3O[C@H](CO)[C@@H](O)[C@H]3O)[nH]nc12 [FA, Formycin A] (system: T1, Y160W mutant/Pi complex (Escherichia coli, UniProt P0ABP8, Y161W)).
A) 137

---

Biological target: WT PNP/Pi complex (Escherichia coli)
Construct: made in house
Test: Calorimetric (ITC) titrations with formycin A
Design: species or system E. coli
Details: Kd1 ± SD, three-binding-site model, 50 mM phosphate, pH 7.6, 25 °C, values to be treated as estimates
PROPERTY_NAME: pKd
Quick note: pKd values are minus log10 of concentrations in mol/L.

Q) Fill in: pKd of Nc1ncnc2c([C@@H]3O[C@H](CO)[C@@H](O)[C@H]3O)[nH]nc12 [FA, Formycin A] is ___
A) 5.05

---

Target: WT E. coli PNP (Escherichia coli)
Construct: made in house
Assay: Near-UV CD titrations
Type: binding
Details: CD titrations with phosphate, three-binding-site model, 25 °C, 50 mM Tris/HCl pH 7.6, read-out: Kd3 ± SD
PROPERTY_NAME: Kd (µM)
Numbers only here, please. The scale is µM.

Q) Look at this compound and give its reported Kd. O=P(O)(O)O [Pi, Orthophosphate]
A) 1030
